biological target: recombinant BACE enzyme (Homo sapiens); assay: FRET assay (in vitro); conditions: concentration that reduces the activity of BACE to 50 %
Sequence (P56817 46-501): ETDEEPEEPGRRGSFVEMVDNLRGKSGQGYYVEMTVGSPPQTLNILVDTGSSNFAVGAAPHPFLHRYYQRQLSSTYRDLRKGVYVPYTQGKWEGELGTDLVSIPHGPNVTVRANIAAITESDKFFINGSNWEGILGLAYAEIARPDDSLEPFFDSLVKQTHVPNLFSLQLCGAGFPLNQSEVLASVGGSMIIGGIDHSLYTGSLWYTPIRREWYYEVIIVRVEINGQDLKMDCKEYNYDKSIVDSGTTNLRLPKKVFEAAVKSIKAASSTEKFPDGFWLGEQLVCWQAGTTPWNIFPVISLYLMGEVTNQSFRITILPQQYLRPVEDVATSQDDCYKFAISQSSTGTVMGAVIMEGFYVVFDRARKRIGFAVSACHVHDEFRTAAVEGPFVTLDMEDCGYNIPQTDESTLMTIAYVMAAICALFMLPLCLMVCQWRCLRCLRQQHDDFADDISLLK
List of IC50 values.
Provide the reading as a plain figure in µM.

Before answering, review these 3 worked examples.
COCCCNC(=O)c1cc(NC(=O)Nc2ccc(Cl)c(Cl)c2)ccc1N(C)C
46
CN(C)c1ccc(NC(=O)Nc2cc(C(F)(F)F)cc(C(F)(F)F)c2)cc1C(=O)NCc1ccc(F)cc1
131
COc1cc(NC(=O)Nc2ccc(N(C)C)c(C(=O)NCc3ccc(F)cc3)c2)cc(OC)c1
64

Lab note: next molecule to report on.
State the measured IC50 (recombinant BACE enzyme (Homo sapiens)) of COCCCNC(=O)c1cc(NC(=O)Nc2cc(C(F)(F)F)cc(C(F)(F)F)c2)ccc1N(C)C
284
